Condition details: in acetonitrile, 283.15 K
Property measured: solubility (mole fraction)

Smiles representation	Measured result
OC[C@H]1O[C@@H](Oc2ccc(O)cc2)[C@H](O)[C@@H](O)[C@@H]1O	8.17e-05

* * *

Condition details: in methanol, 293.15 K
Property measured: solubility (mole fraction)

Smiles representation	Measured result
OC[C@H]1O[C@@H](Oc2ccc(O)cc2)[C@H](O)[C@@H](O)[C@@H]1O	0.0123

* * *

Condition details: in isopropanol, 318.15 K
Property measured: solubility (mole fraction)

Smiles representation	Property measured	Measured result
OC[C@H]1O[C@@H](Oc2ccc(O)cc2)[C@H](O)[C@@H](O)[C@@H]1O	solubility (mole fraction)	0.00216

* * *

Condition details: in ethanol, 288.15 K

Smiles representation	solubility (mole fraction)
OC[C@H]1O[C@@H](Oc2ccc(O)cc2)[C@H](O)[C@@H](O)[C@@H]1O	0.00268

* * *

Condition details: in n-butanol, 308.15 K
Property measured: solubility (mole fraction)

Smiles representation	Measured result
OC[C@H]1O[C@@H](Oc2ccc(O)cc2)[C@H](O)[C@@H](O)[C@@H]1O	0.001

* * *

Condition details: in isobutanol, 288.15 K

Smiles representation	solubility (mole fraction)
OC[C@H]1O[C@@H](Oc2ccc(O)cc2)[C@H](O)[C@@H](O)[C@@H]1O	0.000279

* * *

Condition details: in acetonitrile, 303.15 K
Property measured: solubility (mole fraction)

Smiles representation	Property measured	Measured result
OC[C@H]1O[C@@H](Oc2ccc(O)cc2)[C@H](O)[C@@H](O)[C@@H]1O	solubility (mole fraction)	0.000163

* * *

Condition details: in acetonitrile, 313.15 K

Smiles representation	solubility (mole fraction)
OC[C@H]1O[C@@H](Oc2ccc(O)cc2)[C@H](O)[C@@H](O)[C@@H]1O	0.000236

* * *

Condition details: in acetone, 308.15 K

Smiles representation	solubility (mole fraction)
OC[C@H]1O[C@@H](Oc2ccc(O)cc2)[C@H](O)[C@@H](O)[C@@H]1O	0.00101

* * *

Condition details: in 2-butanone, 288.15 K
Property measured: solubility (mole fraction)

Smiles representation	Measured result
OC[C@H]1O[C@@H](Oc2ccc(O)cc2)[C@H](O)[C@@H](O)[C@@H]1O	0.000212

* * *

Condition details: in ethylene glycol, 298.15 K
Property measured: solubility (mole fraction)

Smiles representation	Measured result
OC[C@H]1O[C@@H](Oc2ccc(O)cc2)[C@H](O)[C@@H](O)[C@@H]1O	0.0527

* * *

Condition details: in acetonitrile, 308.15 K
Property measured: solubility (mole fraction)

Smiles representation	Measured result
OC[C@H]1O[C@@H](Oc2ccc(O)cc2)[C@H](O)[C@@H](O)[C@@H]1O	0.000211

* * *

Condition details: in ethyl acetate, 303.15 K
Property measured: solubility (mole fraction)

Smiles representation	Measured result
OC[C@H]1O[C@@H](Oc2ccc(O)cc2)[C@H](O)[C@@H](O)[C@@H]1O	9.62e-05

* * *

Condition details: in isopropanol, 293.15 K

Smiles representation	solubility (mole fraction)
OC[C@H]1O[C@@H](Oc2ccc(O)cc2)[C@H](O)[C@@H](O)[C@@H]1O	0.0009

* * *

Condition details: in ethylene glycol, 283.15 K

Smiles representation	solubility (mole fraction)
OC[C@H]1O[C@@H](Oc2ccc(O)cc2)[C@H](O)[C@@H](O)[C@@H]1O	0.0471

* * *

Condition details: in 2-butanone, 313.15 K

Smiles representation	solubility (mole fraction)
OC[C@H]1O[C@@H](Oc2ccc(O)cc2)[C@H](O)[C@@H](O)[C@@H]1O	0.000418

* * *

Condition details: in acetone, 303.15 K

Smiles representation	solubility (mole fraction)
OC[C@H]1O[C@@H](Oc2ccc(O)cc2)[C@H](O)[C@@H](O)[C@@H]1O	0.000867

* * *

Condition details: in ethanol, 313.15 K

Smiles representation	solubility (mole fraction)
OC[C@H]1O[C@@H](Oc2ccc(O)cc2)[C@H](O)[C@@H](O)[C@@H]1O	0.00477

* * *

Condition details: in ethanol, 293.15 K

Smiles representation	solubility (mole fraction)
OC[C@H]1O[C@@H](Oc2ccc(O)cc2)[C@H](O)[C@@H](O)[C@@H]1O	0.0029

* * *

Condition details: in ethylene glycol, 293.15 K
Property measured: solubility (mole fraction)

Smiles representation	Property measured	Measured result
OC[C@H]1O[C@@H](Oc2ccc(O)cc2)[C@H](O)[C@@H](O)[C@@H]1O	solubility (mole fraction)	0.0507

* * *

Condition details: in methanol, 318.15 K

Smiles representation	solubility (mole fraction)
OC[C@H]1O[C@@H](Oc2ccc(O)cc2)[C@H](O)[C@@H](O)[C@@H]1O	0.0191

* * *

Condition details: in acetonitrile, 288.15 K
Property measured: solubility (mole fraction)

Smiles representation	Property measured	Measured result
OC[C@H]1O[C@@H](Oc2ccc(O)cc2)[C@H](O)[C@@H](O)[C@@H]1O	solubility (mole fraction)	9.3e-05

* * *

Condition details: in ethylene glycol, 308.15 K
Property measured: solubility (mole fraction)

Smiles representation	Measured result
OC[C@H]1O[C@@H](Oc2ccc(O)cc2)[C@H](O)[C@@H](O)[C@@H]1O	0.0572

* * *

Condition details: in isopropanol, 308.15 K

Smiles representation	solubility (mole fraction)
OC[C@H]1O[C@@H](Oc2ccc(O)cc2)[C@H](O)[C@@H](O)[C@@H]1O	0.0016

* * *

Condition details: in 2-butanone, 318.15 K

Smiles representation	solubility (mole fraction)
OC[C@H]1O[C@@H](Oc2ccc(O)cc2)[C@H](O)[C@@H](O)[C@@H]1O	0.00045

* * *

Condition details: in isobutanol, 298.15 K

Smiles representation	solubility (mole fraction)
OC[C@H]1O[C@@H](Oc2ccc(O)cc2)[C@H](O)[C@@H](O)[C@@H]1O	0.000394

* * *

Condition details: in acetone, 283.15 K
Property measured: solubility (mole fraction)

Smiles representation	Measured result
OC[C@H]1O[C@@H](Oc2ccc(O)cc2)[C@H](O)[C@@H](O)[C@@H]1O	0.000686

* * *

Condition details: in 2-butanone, 298.15 K
Property measured: solubility (mole fraction)

Smiles representation	Property measured	Measured result
OC[C@H]1O[C@@H](Oc2ccc(O)cc2)[C@H](O)[C@@H](O)[C@@H]1O	solubility (mole fraction)	0.00026

* * *

Condition details: in ethanol, 283.15 K
Property measured: solubility (mole fraction)

Smiles representation	Property measured	Measured result
OC[C@H]1O[C@@H](Oc2ccc(O)cc2)[C@H](O)[C@@H](O)[C@@H]1O	solubility (mole fraction)	0.00263

* * *

Condition details: in 2-butanone, 308.15 K

Smiles representation	solubility (mole fraction)
OC[C@H]1O[C@@H](Oc2ccc(O)cc2)[C@H](O)[C@@H](O)[C@@H]1O	0.000346

* * *

Condition details: in ethyl acetate, 308.15 K

Smiles representation	solubility (mole fraction)
OC[C@H]1O[C@@H](Oc2ccc(O)cc2)[C@H](O)[C@@H](O)[C@@H]1O	0.000104

* * *

Condition details: in 2-butanone, 283.15 K

Smiles representation	solubility (mole fraction)
OC[C@H]1O[C@@H](Oc2ccc(O)cc2)[C@H](O)[C@@H](O)[C@@H]1O	0.000188

* * *

Condition details: in n-propanol, 288.15 K
Property measured: solubility (mole fraction)

Smiles representation	Measured result
OC[C@H]1O[C@@H](Oc2ccc(O)cc2)[C@H](O)[C@@H](O)[C@@H]1O	0.000889

* * *

Condition details: in isopropanol, 323.15 K

Smiles representation	solubility (mole fraction)
OC[C@H]1O[C@@H](Oc2ccc(O)cc2)[C@H](O)[C@@H](O)[C@@H]1O	0.00261

* * *

Condition details: in n-propanol, 323.15 K

Smiles representation	solubility (mole fraction)
OC[C@H]1O[C@@H](Oc2ccc(O)cc2)[C@H](O)[C@@H](O)[C@@H]1O	0.0023

* * *

Condition details: in n-propanol, 308.15 K

Smiles representation	solubility (mole fraction)
OC[C@H]1O[C@@H](Oc2ccc(O)cc2)[C@H](O)[C@@H](O)[C@@H]1O	0.00155

* * *

Condition details: in methyl acetate, 283.15 K
Property measured: solubility (mole fraction)

Smiles representation	Measured result
OC[C@H]1O[C@@H](Oc2ccc(O)cc2)[C@H](O)[C@@H](O)[C@@H]1O	0.000112

* * *

Condition details: in n-butanol, 283.15 K
Property measured: solubility (mole fraction)

Smiles representation	Property measured	Measured result
OC[C@H]1O[C@@H](Oc2ccc(O)cc2)[C@H](O)[C@@H](O)[C@@H]1O	solubility (mole fraction)	0.000376

* * *

Condition details: in n-butanol, 323.15 K

Smiles representation	solubility (mole fraction)
OC[C@H]1O[C@@H](Oc2ccc(O)cc2)[C@H](O)[C@@H](O)[C@@H]1O	0.00144

* * *

Condition details: in acetonitrile, 318.15 K
Property measured: solubility (mole fraction)

Smiles representation	Measured result
OC[C@H]1O[C@@H](Oc2ccc(O)cc2)[C@H](O)[C@@H](O)[C@@H]1O	0.000318

Origin of values: BigSolDB 2.1
